# system.name: endothelial lipase (EL) (Homo sapiens)
# Construct: transformed by RAGE technology (Athersys) to overexpress endogenous EL; endogenous in cells; conditioned medium used as the enzyme source
# Sequence (Q9Y5X9 21-500): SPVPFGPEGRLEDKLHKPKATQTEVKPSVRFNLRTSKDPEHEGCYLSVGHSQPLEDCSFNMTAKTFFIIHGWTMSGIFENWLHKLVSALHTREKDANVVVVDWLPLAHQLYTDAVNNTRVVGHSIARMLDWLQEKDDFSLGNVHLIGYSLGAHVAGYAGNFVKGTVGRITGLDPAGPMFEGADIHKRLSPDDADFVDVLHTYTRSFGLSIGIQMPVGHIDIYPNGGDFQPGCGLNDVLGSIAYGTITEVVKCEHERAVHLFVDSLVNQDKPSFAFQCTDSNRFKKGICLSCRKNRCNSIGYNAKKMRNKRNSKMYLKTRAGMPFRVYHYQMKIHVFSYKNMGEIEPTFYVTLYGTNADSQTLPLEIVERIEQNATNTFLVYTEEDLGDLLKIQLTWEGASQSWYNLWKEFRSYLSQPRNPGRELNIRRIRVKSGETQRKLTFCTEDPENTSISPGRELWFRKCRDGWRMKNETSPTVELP
# experiment.notes: Endothelial lipase (EL) enzymatic assay with fluorescent substrate A10070 in DMPG vesicles
# run.parameters: conditioned media from HT-1080 cells overexpressing endogenous EL; 20 min preincubation at 37° C.; FRET substrate A10070; read-out: HLE_EL_CRC IC50
Below, each entry is listed with its recorded pIC50.
Interpret pIC50 as the negative base-10 log of the concentration measured in mol/L.

Task: Report measured pIC50; entry is O=C(NCc1cccc(-c2ccc(Cl)cc2)c1)c1c(O)c(=O)[nH]c2ccc(OC(F)(F)F)cc12 [Example 42]
Result: 7.02

Task: Report measured pIC50; entry is Cn1c(=O)c(O)c(C(=O)NCc2ccccc2N2CCCC2)c2ccccc21 [Example 109]
Result: 5.54

Task: Report measured pIC50; entry is Cn1c(=O)c(O)c(C(=O)NCc2ccc(OC(F)(F)F)cc2)c2ccccc21 [Example 85]
Result: 7.37
